EXPERIMENT_DESCRIPTION: Intravenous half life in rat was determined
Assay type: ADME, organism-based
ASSAY_SETUP: in vivo
MEASURE: half-life (h)
Give just the numeric value; h need not be written.

The measured half-life associated with "C[C@H](Nc1cc(-c2c(-c3cccc(C(F)(F)F)c3)nc(C3CCNCC3)n2C)ccn1)c1ccccc1" reads 2.85

Further cases:
Form: compound = "Nc1nccc(-c2[nH]c(C3CCNCC3)nc2-c2cccc(C(F)(F)F)c2)n1" ; half-life = 0.132

---

EXPERIMENTAL_TARGET: MAP kinase p38 (Homo sapiens, UniProt O15264+Q15759+Q16539+P53778)
EXPERIMENT_DESCRIPTION: Inhibition of Mitogen-activated protein kinase p38
Type: protein assay
MEASURE: IC50 (nM)
The answer is to be given in nM; state only the numeric part.

Previously resolved entries follow.
The value of IC50 measured for the compound "FC(F)(F)c1cccc(-c2nc(-c3ccccc3)[nH]c2-c2ccncc2)c1" turned out to be 86

// "C[C@H](Nc1nccc(-c2[nH]c(C3CCNCC3)nc2-c2cccc(C(F)(F)F)c2)n1)c1ccccc1" : IC50 value = 0.75

Further cases:
IC50 reading for "COc1ccc(CNc2nccc(-c3[nH]c(C4CCNCC4)nc3-c3cccc(C(F)(F)F)c3)n2)cc1" : 7.6

Just so you know, measured IC50 for "Nc1nccc(-c2[nH]c(C3CCNCC3)nc2-c2cccc(C(F)(F)F)c2)n1" came out at 7
